system.tested: BChE enzyme (Homo sapiens, UniProt P06276)
Sequence (P06276 29-602, species assumed): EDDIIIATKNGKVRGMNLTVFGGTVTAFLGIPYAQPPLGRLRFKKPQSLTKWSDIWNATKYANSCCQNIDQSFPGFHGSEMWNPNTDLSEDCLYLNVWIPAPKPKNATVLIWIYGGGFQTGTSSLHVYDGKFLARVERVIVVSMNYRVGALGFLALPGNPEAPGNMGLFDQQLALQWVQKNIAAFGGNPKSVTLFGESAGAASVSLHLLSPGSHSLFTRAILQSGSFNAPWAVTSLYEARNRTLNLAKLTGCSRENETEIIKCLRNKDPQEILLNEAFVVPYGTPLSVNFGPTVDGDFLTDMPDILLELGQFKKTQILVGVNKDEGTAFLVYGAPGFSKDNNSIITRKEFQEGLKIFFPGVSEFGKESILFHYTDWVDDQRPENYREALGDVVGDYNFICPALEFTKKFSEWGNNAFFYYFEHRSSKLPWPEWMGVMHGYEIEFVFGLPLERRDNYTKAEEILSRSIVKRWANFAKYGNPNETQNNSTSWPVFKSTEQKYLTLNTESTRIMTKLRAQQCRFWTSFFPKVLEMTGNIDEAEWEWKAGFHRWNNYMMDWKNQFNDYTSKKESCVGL
assay.info: biochemical
conditions.used: read-out: BChE% inhibition 10^−3 M
Output Condition met for inhibition at 1000 µM not less than 30%; output Condition not met otherwise.

Solved entries:
In [3]: df
Out[3]:
                                smiles_text                             system_tested       answer_label
0  CC(=NN=c1scc(-c2ccc(Cl)cc2)n1C)c1ccc(N2CCCCC2)cc1  BChE enzyme (Homo sapiens, UniProt P06276)  Condition not met
1  CCn1c(-c2ccc(Cl)cc2)csc1=NN=C(C)c1ccc(N2CCCCC2)cc1  BChE enzyme (Homo sapiens, UniProt P06276)      Condition met
2  CC(=NN=c1scc(-c2ccc(Cl)c(Cl)c2)n1C)c1ccc(N2CCCCC2)cc1  BChE enzyme (Homo sapiens, UniProt P06276)      Condition met
3  C=CCn1c(-c2ccc(C)cc2C)csc1=N/N=C(\C)c1ccc(N2CCCCC2)cc1  BChE enzyme (Homo sapiens, UniProt P06276)      Condition met

Inquiry: Threshold query (inhibition at 1000 µM >= 30%) on `COc1ccc(-c2csc(=NN=C(C)c3ccc(N4CCCCC4)cc3)n2C)cc1`
Reply text: Condition not met

Inquiry: hey, is inhibition at 1000 µM for this one >= 30%? `CCn1c(-c2ccc(F)cc2)csc1=NN=C(C)c1ccc(N2CCCCC2)cc1`
Reply text: Condition met

Inquiry: Has `C=CCn1c(-c2ccc(Cl)c(Cl)c2)csc1=N/N=C(\C)c1ccc(N2CCCCC2)cc1` a recorded inhibition at 1000 µM greater than or equal to 30%?
Reply text: Condition met

Inquiry: inhibition at 1000 µM >= 30% for `CC(=NN=c1scc(-c2ccc(Cl)cc2Cl)n1C)c1ccc(N2CCCCC2)cc1` ?
Reply text: Condition met

----------
system.tested: AChE enzyme (Homo sapiens, UniProt P22303)
Sequence (P22303 32-614): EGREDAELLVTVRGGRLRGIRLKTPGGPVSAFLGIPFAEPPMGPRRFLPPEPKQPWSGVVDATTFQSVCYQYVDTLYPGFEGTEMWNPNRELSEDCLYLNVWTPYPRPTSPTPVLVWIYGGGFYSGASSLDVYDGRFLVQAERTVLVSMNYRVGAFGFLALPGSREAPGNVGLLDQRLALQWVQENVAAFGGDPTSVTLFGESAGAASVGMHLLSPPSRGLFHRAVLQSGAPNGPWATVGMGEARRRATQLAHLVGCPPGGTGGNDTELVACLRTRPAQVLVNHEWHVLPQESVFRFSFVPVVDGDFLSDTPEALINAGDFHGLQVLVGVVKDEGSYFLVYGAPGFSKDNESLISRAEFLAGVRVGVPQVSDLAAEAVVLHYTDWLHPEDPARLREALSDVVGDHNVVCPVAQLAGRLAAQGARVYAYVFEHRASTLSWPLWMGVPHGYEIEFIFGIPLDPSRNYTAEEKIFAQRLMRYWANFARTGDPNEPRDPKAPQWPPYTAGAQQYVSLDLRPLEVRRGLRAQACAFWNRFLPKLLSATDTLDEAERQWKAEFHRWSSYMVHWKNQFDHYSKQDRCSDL
metric: IC50

Please review the following examples before continuing.
>>> print(df.to_string())
                                   molecule  measurement
0  C=CCn1c(-c2ccc(C#N)cc2)csc1=NN=C(C)c1ccc(N2CCCCC2)cc1 [D2f]     > 100 µM
1  CC(=NN=c1scc(-c2ccc(C)cc2)n1C)c1ccc(N2CCCCC2)cc1 [D1a]    > 1000 µM
2  CC(=NN=c1scc(-c2ccc(Cl)cc2)n1C)c1ccc(N2CCCCC2)cc1 [D1d]     > 100 µM

Inquiry: // map CCn1c(-c2ccc(OC)cc2)csc1=NN=C(C)c1ccc(N2CCCCC2)cc1 [D3e] to recorded IC50 (system: AChE enzyme (Homo sapiens, UniProt P22303))
Reply text: > 1000 µM

Inquiry: Please state recorded IC50 (tested on AChE enzyme (Homo sapiens, UniProt P22303)) of CC(=NN=c1scc(-c2ccc(C)cc2C)n1C)c1ccc(N2CCCCC2)cc1 [D1i]
Reply text: > 100 µM

Inquiry: State its IC50 on AChE enzyme (Homo sapiens, UniProt P22303): C=CCn1c(-c2ccc(C)cc2)csc1=NN=C(C)c1ccc(N2CCCCC2)cc1 [D2a]
Reply text: > 1000 µM

Inquiry: Hi! What's the reported IC50 for CC(=NN=c1scc(-c2ccc(C#N)cc2)n1C)c1ccc(N2CCCCC2)cc1 [D1f] on AChE enzyme (Homo sapiens, UniProt P22303)?
Reply text: 0.039 µM

Inquiry: # get_value(readout= IC50, system= AChE enzyme (Homo sapiens, UniProt P22303)) for CCn1c(-c2ccc(C)cc2)csc1=NN=C(C)c1ccc(N2CCCCC2)cc1 [D3a]
Reply text: > 100 µM

Inquiry: Notebook: pull reported IC50 for AChE enzyme (Homo sapiens, UniProt P22303), entry C=CCn1c(-c2ccc(F)cc2)csc1=NN=C(C)c1ccc(N2CCCCC2)cc1 [D2b]
Reply text: > 1000 µM

Inquiry: I'm curious: which IC50 was measured for COc1ccc(-c2csc(=NN=C(C)c3ccc(N4CCCCC4)cc3)n2C)cc1 [D1e] tested on AChE enzyme (Homo sapiens, UniProt P22303)?
Reply text: 0.613 µM

Inquiry: Request: IC50, test system AChE enzyme (Homo sapiens, UniProt P22303), entry C=CCn1c(-c2ccc(C)cc2C)csc1=N/N=C(\C)c1ccc(N2CCCCC2)cc1 [D2i]
Reply text: > 1000 µM

Inquiry: Can you look up IC50 on AChE enzyme (Homo sapiens, UniProt P22303) for CCn1c(-c2ccc(Cl)c(Cl)c2)csc1=NN=C(C)c1ccc(N2CCCCC2)cc1 [D3h] ?
Reply text: > 1000 µM
